system: LXRa homodimer (NR concentration 270 nM); test: PBM binding z-score (relative to random genomic background probes); higher = stronger binding; sequences stand for … in GC…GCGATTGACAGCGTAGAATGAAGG
recorded metric: PBM binding z-score
Respond numerically, and do not add a unit to the figure.

Reference set, count: 2
>>> print(df.to_string())
                             residues      recorded_metric  value_observed
0  AGAACGAGGGCACGTTGAGTTGATAGCAGAGTAG  PBM binding z-score          -0.372
1  ATCTCTAGGTAAAGATAGTTCAGTGCATGCAAAT  PBM binding z-score           0.693

Moving on to the next sequence.
# input Please report PBM binding z-score for the following sequence: `TCTTGTAGATCAACAAGAGGTTAAGAAAGATCGA`
# output 0.311

###

system: PPARa:RXRa (NR concentration 270 nM, RXRa partner concentration 90 nM); assay: PBM binding z-score (relative to random genomic background probes); higher = stronger binding; sequences stand for … in GC…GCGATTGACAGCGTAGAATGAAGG
Measured PBM binding z-score accompanies every entry in the list below.
Respond numerically, and do not add a unit to the figure.

Reference set, count: 3
>>> print(df.to_string())
                             residues  value_observed
0  TCTTGTACATCAAAGGTTAAGAAAGCCGAAGCCT            2.92
1  ATCTCTTGGTAACCAAGTTCAGTGAATGCCGAAC           0.472
2  ATCTCTAGGTAAAGTTCAGTTAAAGATCGATAGA            2.39

# input # return PBM binding z-score for `GCTATCAGTTGAAAGGGCAACCGAATGATTCTCG` , test system: PPARa:RXRa (NR concentration 270 nM, RXRa partner concentration 90 nM)
# output 1.99

###

Measured PBM binding z-score accompanies every entry in the list below.
test system: PPARg DBDmut:RXRa IVT, anti-PPARg (DBD mutation: PPARg1 K132A/R137A, NR concentration 270 nM, RXRa partner concentration 90 nM); experiment: PBM binding z-score (relative to random genomic background probes); higher = stronger binding; sequences stand for … in GC…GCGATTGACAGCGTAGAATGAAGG
Respond numerically, and do not add a unit to the figure.

Reference set, count: 4
>>> print(df.to_string())
                             residues      recorded_metric  value_observed
0  AATACAGTGTCATCGTAGGCCAGAGTACGCACAG  PBM binding z-score            1.33
1  TCATATAGGTCAAGGTGAAAGTCGAACGATATGA  PBM binding z-score            3.34
2  ATCGAAAGGTCGACGAGGTCAGTATACACCGTTT  PBM binding z-score            1.42
3  ATACCAAGGTGATCGTAAGGTCGTTGATACTAAC  PBM binding z-score           0.685

# input Please report PBM binding z-score for the following sequence: `AACTCTAGGTAAGACTCAGTTCAGTGAAGAACGC`
# output 0.278

# input Please report PBM binding z-score for the following sequence: `CGTTCAAGGTCAGAGAGGTCAGTGAATGCCGAGT`
# output 1.75

# input Please report PBM binding z-score for the following sequence: `ACTATTAGATGACTTAGGGCAACCGATACGACGC`
# output 1.54

# input Please report PBM binding z-score for the following sequence: `GCTCCGAGGACAAGGTCAGAGCTTTGTCCGTAGA`
# output -1.51

# input Please report PBM binding z-score for the following sequence: `CAAACTAGGTCACAGAAGTCAAAGTCCGTGCGTA`
# output 4.57
